Please respond with reported IC50 for every item in the list.
Target: histamine H1 (Cavia porcellus, UniProt P31389)
Sequence (P31389 whole entry): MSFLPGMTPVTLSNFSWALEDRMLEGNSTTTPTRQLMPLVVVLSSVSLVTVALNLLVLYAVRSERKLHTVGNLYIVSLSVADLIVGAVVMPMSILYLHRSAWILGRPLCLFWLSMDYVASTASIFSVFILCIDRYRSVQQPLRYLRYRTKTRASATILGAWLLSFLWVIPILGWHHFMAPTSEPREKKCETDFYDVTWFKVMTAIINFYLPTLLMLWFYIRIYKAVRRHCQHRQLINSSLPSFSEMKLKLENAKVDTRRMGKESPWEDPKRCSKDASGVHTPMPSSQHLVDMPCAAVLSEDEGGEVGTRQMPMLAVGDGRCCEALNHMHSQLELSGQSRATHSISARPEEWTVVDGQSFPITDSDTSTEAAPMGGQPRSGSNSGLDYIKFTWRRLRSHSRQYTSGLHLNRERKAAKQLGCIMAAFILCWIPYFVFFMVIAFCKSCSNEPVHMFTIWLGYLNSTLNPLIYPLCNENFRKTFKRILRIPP
Experiment: Drugs vs. histamine at 1 × 10^-6 M in guinea pig terminal ileum, comparison with -383 analogues
Format: cell-based
Set-up: A section of terminal ileum was removed and suspended in aerated 37° C; Tyrodes solution; from tissue; host or cells: terminal ileum of male Hartley guinea pigs
Conditions: guinea pig ileum; histamine 1 × 10^-6 M; calculated from the table data; read-out: IC50 (inhibitory concentration50)
Give the quantity in nM, number only.

Which IC50 reading was recorded for the compound Cn1c(=O)c2c(ncn2CCCCN2CCN(C(c3ccc(Cl)cc3)c3ccc(Cl)cc3)CC2)n(C)c1=O [-383 Dichloro compound, reference compound] ? 790

Which IC50 reading was recorded for the compound Cn1c(=O)c2c(ncn2CCCN2CCN(C(c3ccccc3)c3ccc(Cl)cc3)CC2)n(C)c1=O (centres unmarked) [-383 Monochloro compound, reference compound] ? 370

###

Target: histamine H1 (Cavia porcellus)
Experiment: Drugs vs. histamine at 1 × 10^-6 M in guinea pig terminal ileum, comparison with -383 analogues
Assay type: cell-based
Set-up: A section of terminal ileum was removed and suspended in aerated 37° C; Tyrodes solution; from tissue; host or cells: terminal ileum of male Hartley guinea pigs
reported-property: IC50 (nM)
Give the quantity in nM, number only.

Which IC50 reading was recorded for the compound "Cn1c(=O)c2c(ncn2CCCN2CCN(C(c3ccc(F)cc3)c3ccc(F)cc3)CC2)n(C)c1=O" ? 38
